Exercise: for every item that follows, state its recorded pIC50.
- measured_target: Histone deacetylase 1 (Homo sapiens, UniProt Q13547)
- Sequence (Q13547 whole entry): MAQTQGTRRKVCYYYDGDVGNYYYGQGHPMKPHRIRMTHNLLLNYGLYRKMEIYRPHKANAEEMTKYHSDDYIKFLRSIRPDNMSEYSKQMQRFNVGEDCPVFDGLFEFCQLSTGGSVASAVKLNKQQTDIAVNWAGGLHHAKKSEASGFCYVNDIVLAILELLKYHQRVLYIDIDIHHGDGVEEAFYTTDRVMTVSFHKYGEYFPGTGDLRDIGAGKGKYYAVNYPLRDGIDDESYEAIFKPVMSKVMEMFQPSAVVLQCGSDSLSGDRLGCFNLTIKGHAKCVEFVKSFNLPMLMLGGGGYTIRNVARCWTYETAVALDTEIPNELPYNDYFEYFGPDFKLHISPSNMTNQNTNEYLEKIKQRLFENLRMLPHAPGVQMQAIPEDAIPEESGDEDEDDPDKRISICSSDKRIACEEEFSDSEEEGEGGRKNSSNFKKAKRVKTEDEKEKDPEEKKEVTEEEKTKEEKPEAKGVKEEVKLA
- measurement_protocol: Inhibition of recombinant full-length human C-terminal FLAG/His-tagged HDAC1 expressed in baculovirus infected Sf9 insect cells using Fluor-de-Lys as substrate measured after 10 mins by fluorescence assay
Answers are plain numbers, as −log10 of the molar value.

For every listed record, write down its pIC50.
1. CNC(=O)c1cc(Oc2ccc(NC(=O)c3ccc(F)cc3)cc2)ccc1N
2. CNC(=O)c1cc(Oc2ccc(NC(=O)c3cccnc3)cc2)ccc1N
3. CNC(=O)c1cc(Oc2ccc(NC(=O)c3cccc(N)c3)cc2)ccc1N
4. CNC(=O)c1cc(Oc2ccc(NC(=O)c3ccc(N)cc3)cc2)ccc1N
5. CNC(=O)c1cc(Oc2ccc(NC(=O)c3ccc(OC)cc3)cc2)ccc1N
6. CNC(=O)c1cc(Oc2ccc(NC(=O)c3ccc(Cl)c(C(F)(F)F)c3)cc2)ccc1N
7. NC(=O)c1cc(Oc2ccc(NC(=O)c3ccc(Cl)c(C(F)(F)F)c3)cc2)ccc1N
8. CNC(=O)c1cc(Oc2ccc(NC(=O)c3ccc4ccccc4c3)cc2)ccc1N

[5.12, 5.28, 5.99, 5.64, 5.61, 5.93, 5.55, 5.09]

For every listed record, write down its pIC50.
1. CNC(=O)c1cc(Oc2ccc(NC(=O)c3cccc(O)c3)cc2)ccc1N
2. CCNC(=O)c1cc(Oc2ccc(NC(=O)c3ccc(Cl)c(C(F)(F)F)c3)cc2)ccc1N
3. CNC(=O)c1cc(Oc2ccc(NC(=O)c3ccc(Cl)cc3)cc2)ccc1N

1: 5.71; 2: 5.79; 3: 5.15

Answer with the recorded pIC50 for the compound listed here: "CNC(=O)c1cc(Oc2ccc(NC(=O)c3ccccc3)cc2)ccc1N"
5.21
